Each recorded value in this set is attributed to PubChem BioAssay (NCI).

Kindly supply the reported growth values for the records listed here.
tested on: SNB-75 CNS; experiment: NCI-60 one-dose screen, 48 h (100 = growth as untreated, 0 = no growth, -100 = all killed); conditions: 10 µM unless noted
Compounds without any hit were thinned out: in the full panel of roughly 83,000, 20% have a hit. Calls of active or inactive are those of the source. The calls were made as follows: active = growth percent below 10; inactive = the rest.

Record excerpt, results attached:
>>> assay_value("Cc1cc(C)cc(Nc2nc3c(s2)CC[C@@]2(C)C3=CC[C@@H]3[C@@H]2CC[C@]2(C)C(=O)CC[C@@H]32)c1")
"70.5% (inactive)"
>>> assay_value("O=C(Nc1ccc(Br)cc1)c1cc(Br)cc(Br)c1O")
"-10.5% (active)"
>>> assay_value("COc1ccc(-n2c(C)nc3cc(OC)c(OC)cc3c2=O)cc1OC")
"92.2% (inactive)"
>>> assay_value("CNC(=O)Oc1cccc(C(F)(F)F)c1")
"113% (inactive)"

Report growth for every entry below.
1. CC(=O)Oc1ccccc1C(=O)NCCC[Se]C#N
2. Cn1cc(-c2csc(-c3cn(CCCCN4CCCCC4)c4ccccc34)n2)c2cccnc21
3. O=C(CC1(O)C(=O)N(Cc2ccccc2)c2ccc(Br)cc21)c1ccc(C(=O)NCC2CCC3(CC2)OOC2(CCCCC2)OO3)cc1 (configuration not stated)

A)
-35.1% (active)
53.1% (inactive)
15% (inactive)

* * *

test system: NCI-H460 lung; assay: NCI-60 one-dose screen, 48 h; details: 10 µM unless noted
This is part of a sample that, as a whole, favours compounds with a hit. Of some 83,000 tested, about 20% had one in any assay. The source made the active and inactive calls. Rule for the calls: active = growth percent below 10; inactive = the rest.
Select the correct class. Options are Yes = active, No = inactive and nothing else.

Worked examples, 6 molecules total:
>>> answer_label("[Cl][Hg][c]1cc(Br)cc(Br)c1")
"No"
>>> answer_label("CC1(C)C(C(=O)c2cn(CCCCF)c3ccccc23)C1(C)C")
"No"
>>> answer_label("O=[N+]([O-])/C=C\\c1ccc(Cl)c(Cl)c1")
"No"
>>> answer_label("CCOC(=S)S[C@H]1C[C@@H]2[C@H](CC[C@]3(C)C(=O)CC[C@@H]23)[C@@]2(C)CCC(=O)C=C12")
"No"
>>> answer_label("C[C@]12C[C@@H](CO)[C@H](O)C[C@@H]1CC[C@@H]1[C@@H]2CC[C@]2(C)[C@@H](O)CC[C@@H]12")
"No"
>>> answer_label("COc1ccc(N(CC(=O)NCCC[Te]c2ccccc2)C(=O)CCSC2=C(C)C(=O)c3ccccc3C2=O)cc1")
"Yes"

Q) GET /call?item= Nc1c(F)cc(-c2nc3cc(F)ccc3[se]2)cc1Br returns the recorded outcome of this test.
A) Yes

Q) Also need CN1C(=O)C(=Cc2cn(Cc3ccccc3)c3ccccc23)C(=O)N(C)C1=O , thanks.
A) Yes

Q) Please answer likewise for CN1CC(=O)N(O)C1(C)c1cccnc1 (stereo unspecified)
A) No

Q) # repeat for O=C(N/N=C/c1ccc(N(CCCl)CCCl)cc1)c1cccc2ccccc12
A) No

Q) Same thing, different molecule: OCCCCCNC1CCCCC1
A) No

Q) Do the same for O=C(CC1(O)C(=O)Nc2ccc(Cl)cc21)c1ccc(C(=O)NCC2CCC3(CC2)OOC2(CCCCC2)OO3)cc1 (stereo unspecified) please
A) Yes

Q) Try this molecule next: COc1cc([C@@H]2c3cc4c(cc3[C@H](OC(C)=O)[C@H]3COC(=O)[C@H]23)OCO4)cc(OC)c1OC
A) Yes

Q) Field entry: NC(=O)C(Br)c1ccccc1 (stereo unspecified)
A) No

Q) Then this molecule: CCCC(C)C1(CC)C(=O)NC(=O)N(C)C1=O (stereo unspecified)
A) No

Q) Same thing, different molecule: CN1CCC(O)(c2ccc(F)cc2)C(C(=O)c2ccc(F)cc2)C1 (stereo unspecified)
A) No
